The entries below are paired with their reported melting point.

{"columns": ["compound", "melting point"],
 "data": [
  ["COc1cc2c(Oc3ccc4[nH]c(C)cc4c3)ncnc2cc1OCC1CCN(C)C(=O)C1 (stereo not shown)", "250 to 251 °C"],
  ["COc1cc2c(Oc3ccc4[nH]cc(C)c4c3)ncnc2cc1OCCCN1CCCC1", "75 to 77 °C"],
  ["COc1cc2c(Oc3cnc4[nH]ccc4c3)ncnc2cc1OCCCN1CCCC1", "184 to 185.5 °C"],
  ["COc1cc2c(Oc3cccc4[nH]ccc34)ncnc2cc1OCCCN1CCCCC1", "80 to 82 °C"]
]}
